Multiple publications report pKi for Carbonic anhydrase 1 (Homo sapiens, UniProt P00915); what follows is a combined list.
pKi: −log10 of the molar value.
Parameter measured: pKi

Examples with their reported pKi follow.
CCC(C)C(/N=C(\S)Nc1ccc(S(N)(=O)=O)cc1)C(=O)O (centres undefined); 7.66
CCCC(CCC)C(=O)Nc1ccc(S(N)(=O)=O)cc1; 4.65
NCCCC(=O)Nc1ccc2nc(S(N)(=O)=O)sc2c1; 7.85
CC(C)(C)c1ccc(CNCc2ccc(S(N)(=O)=O)cc2)cc1.Cl; 7.59
CNCC(=O)NCc1ccc(S(N)(=O)=O)cc1; 6.02

A: CN(CC(=O)Nc1c(S(N)(=O)=O)cc(S(N)(=O)=O)c(Cl)c1Cl)C(=N)N
B: NS(=O)(=O)c1ccc(-c2ccc(C(=O)c3ccc(C(=O)O)cc3)cc2)cc1
Q) I need your help: which of the pair A , B has higher pKi? Pick one; state its label.
A) B
(B: 6.58, A: 6.28)

---

Reported Ki on Carbonic anhydrase 1 (Homo sapiens) for assorted molecules, compiled from publications.
Parameter measured: Ki (µM)

CCc1cc(-c2ccccc2)cc(CC)[n+]1CC(=O)Nc1cc(C(F)(F)F)c(S(N)(=O)=O)cc1S(N)(=O)=O; 0.31

a: Cc1cc(C)[n+](CC(=O)Nc2ccc(S(N)(=O)=O)cc2)c(C)c1
b: Nc1nc(-c2ccc(NCc3ccc(S(N)(=O)=O)cc3)cc2)cn2c(=O)n(-c3ccccc3)nc12
c: NS(=O)(=O)c1cnccc1Oc1ccncc1S(N)(=O)=O
d: Cc1cc(C)[n+](CC(=O)Nc2cc(Cl)c(S(N)(=O)=O)cc2S(N)(=O)=O)c(C)c1
e: CC(NS(=O)(=O)c1c(F)c(F)c(F)c(F)c1F)C(=O)NO (stereo unspecified)
Q) Reorder: Ki, max to min. Form entry: labels listed in requested order.
A) c, a, b, d, e

---

// read-out pKi, gathered for Carbonic anhydrase 1 (Homo sapiens) from published studies
pKi: −log10 of the molar value.

Cc1ccc(-c2cc(=O)oc3cc(O)ccc23)cc1; < 5.00
CCCN(CCC)S(=O)(=O)c1ccc(C(=O)Nc2ccncc2)cc1; < 5.00

We next turn to a different molecule, shown below.
Q) What is its pKi for Carbonic anhydrase 1 (Homo sapiens)? Entry: `CCCCNS(=O)(=O)NCCC(=O)OC`
A) < 3.70

---

Compiled pKi measurements on Carbonic anhydrase 1 (Homo sapiens, UniProt P00915) taken from the literature.
pKi: −log10 of the molar value.
Parameter measured: pKi

C/C(=N\Nc1nc(-c2ccc(Cl)cc2)cs1)c1nnn(-c2ccc(S(N)(=O)=O)cc2)c1C; 6.60
CCC(=O)OC[C@H]1O[C@@H](n2cc(-c3ccc(S(N)(=O)=O)cc3)nn2)[C@H](OC(=O)CC)[C@@H](OC(=O)CC)[C@H]1OC(=O)CC; 7.10
NS(=O)(=O)c1ccc(CCNC(=O)Nc2c(F)c(F)c(F)c(F)c2F)cc1; 6.03

a: NS(=O)(=O)c1ccc(NC(=O)c2c(F)c(F)cc(F)c2F)cc1
b: COc1ccc(S(=O)(=O)NC(CC(C)C)C(=O)NO)cc1 (stereo not given)
c: Cc1ccc2c(c1)C(=O)N(Cc1ccc(S(N)(=O)=O)cc1)C2=O
d: NS(=O)(=O)c1ccc(Nc2nc(NCC(=O)O)nc(NCC(=O)O)n2)cc1
e: CC(Nc1nc(NCCc2ccc(S(N)(=O)=O)cc2)nc(NC(C)C(=O)O)n1)C(=O)O (racemic)
Q) Order the entries by their reported pKi, beginning at the minimum. Rank the items, then write their labels in that order.
A) d, e, a, b, c

P: CC(=O)N1N=C(c2ccccc2)CC1c1cccc(OS(N)(=O)=O)c1 (stereo not given)
Q: NCC(=O)Nc1ccc(S(=O)(=O)Nc2cccc(S(N)(=O)=O)c2)cc1
Q) // compare: P vs Q , metric pKi, want the smaller Write down the label of the entry you select.
A) P
(P: 6.12, Q: 7.22)

I: NS(=O)(=O)c1cc(-c2noc(C3CC3)n2)cs1
II: Cc1ccc(-c2cs/c(=N\c3ccc(S(N)(=O)=O)cc3)n2-c2ccccc2)cc1
Q) Lower value of pKi belongs to which: I or II ? Response format: the label of the selected entry.
A) II
(II: 6.02, I: 7.28)
